experimental.details: Stability in rat serum measured as % recovery at 10 min
Type: ADME
condition.info: read-out: Recovery
parameter.measured: remaining at 10 min (%)
Give just the numeric value; % need not be written.

Exercise: Give the measured remaining at 10 min of `CN(C(=O)[C@@H](N)Cc1ccccc1)[C@@H](CCCN)C(=O)Nc1ccc2ccccc2c1.O=C(O)C(F)(F)F.O=C(O)C(F)(F)F` .
Solution: 97

Exercise: Query `NCCC[C@H](N)C(=O)N[C@@H](Cc1ccccc1)C(=O)Nc1ccc2ccccc2c1` next
Solution: 38

Exercise: Query `NCCC[C@@H](N)C(=O)N[C@@H](CCc1ccccc1)C(=O)Nc1cnc2ccccc2c1` next
Solution: 100

Exercise: Query `NCCC[C@H](NC(=O)[C@@H](N)Cc1ccccc1)C(=O)Nc1ccc2ccccc2c1` next
Solution: 36
